Target: glucagon receptor (GCGR) (Homo sapiens, UniProt P47871)
Construct: expressed in transfected cells; host or cells: CHO-K1 cells overexpressing GCGR (membrane fractions)
Sequence (P47871 26-477): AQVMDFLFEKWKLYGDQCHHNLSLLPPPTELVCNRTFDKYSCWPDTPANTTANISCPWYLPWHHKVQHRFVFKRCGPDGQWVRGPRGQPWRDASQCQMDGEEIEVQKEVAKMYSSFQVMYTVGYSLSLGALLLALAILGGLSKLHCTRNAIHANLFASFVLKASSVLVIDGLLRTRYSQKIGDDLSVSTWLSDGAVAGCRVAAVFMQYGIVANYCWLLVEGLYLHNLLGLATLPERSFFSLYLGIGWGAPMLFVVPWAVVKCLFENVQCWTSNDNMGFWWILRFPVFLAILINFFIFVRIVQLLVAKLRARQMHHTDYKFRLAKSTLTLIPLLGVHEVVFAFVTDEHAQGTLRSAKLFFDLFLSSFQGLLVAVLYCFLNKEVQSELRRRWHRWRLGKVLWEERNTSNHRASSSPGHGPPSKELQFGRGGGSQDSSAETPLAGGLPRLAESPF
Assay: I125-glucagon binding assay (competition, GCGR membrane fractions)
Details: competition with I125-glucagon 0.0625 nM, membrane fractions of GCGR overexpressed CHO-K1 cells
pIC50: −log10 of the molar value.
Response key: 1 means pIC50 >= 6; -1 means pIC50 < 6.

smiles text	category
CC(C)[C@@H](COc1cnc(-c2ccc(Cl)cc2Cl)nc1)Nc1ccc(C(=O)NCCC(=O)O)cc1	-1
CCCC[C@@H](COc1ccc(-c2ccc(Cl)cc2Cl)cc1)Nc1ccc(C(=O)NCCC(=O)O)cc1	1
CC(C)[C@@H](COc1ccc(-c2ccc(C(F)(F)F)cc2)cc1)Nc1ccc(C(=O)NCCC(=O)O)nc1	1
CC[C@H](C)[C@@H](COc1cc(C)c(-c2cc3ccccc3o2)c(C)c1)Nc1ccc(C(=O)NCCC(=O)O)cc1	1
CCCC[C@@H](COc1ccc(-c2cc3ccccc3o2)cc1)Nc1ccc(C(=O)NCCC(=O)O)cc1	1
Cc1cc(OC[C@@H](Nc2ccc(C(=O)NCCC(=O)O)cc2)C(C)C)cc(C)c1-c1ccc(C(F)(F)F)cc1	1
CC[C@H](C)[C@@H](COc1ccc(-c2cc3ccccc3o2)c(F)c1)Nc1ccc(C(=O)NCCC(=O)O)cc1	1
CC[C@H](C)[C@@H](COc1ccc(-c2ccc(Cl)cc2Cl)c(F)c1)Nc1ccc(C(=O)NCCC(=O)O)cc1	1
CC(C)[C@@H](COc1ccc(-c2ccc(C(F)(F)F)cc2F)nc1)Nc1ccc(C(=O)NCCC(=O)O)cc1	1
CC[C@H](C)[C@@H](COc1ccc(-c2cc3ccccc3o2)c(Cl)c1)Nc1ccc(C(=O)NCc2nnn[nH]2)cc1	1
CCOC(=O)CCNC(=O)c1ccc(N[C@H](COc2ccc(-c3nc4ccccc4s3)cc2)C(C)C)cc1	-1
CC(C)C[C@@H](COc1cc(F)c(-c2ccc(C(F)(F)F)cc2)c(F)c1)Nc1ccc(C(=O)NCCC(=O)O)cn1	-1

----------
The reader will find reported IC50 cAMP values listed item by item below.
Molecular target: glucagon receptor (GCGR) overexpressed CHO-K1 cells or human primary hepatocytes (Homo sapiens, UniProt P47871)
Construct: expressed in transfected cells; host or cells: GCGR overexpressed CHO-K1 cells or human primary hepatocytes (endogenous receptor)
Assay: Glucagon cAMP inhibition assay (Cisbio cAMP Dynamic 2 HTRF)
Assay type: cell-based
Conditions: inhibition of glucagon (EC50 concentration) induced cAMP production
measured property: IC50 cAMP (nM)

smiles text	reported
CCCC[C@@H](COc1ccc(-c2ccc(C(F)(F)F)cc2)nc1)Nc1ccc(C(=O)NCCC(=O)O)cc1	465
CC[C@H](C)[C@@H](COc1ccc(-c2ccc(Cl)cc2Cl)nc1)Nc1ccc(C(=O)NCCC(=O)O)cc1	301
COc1cc(OC[C@@H](Nc2ccc(C(=O)NCCC(=O)O)cc2)C(C)C)ccc1-c1ccc(C(F)(F)F)cc1Cl	97
CC(C)(C)[C@@H](COc1ccc(-c2ccc(C(F)(F)F)cc2Cl)cc1)Nc1ccc(C(=O)NCCC(=O)O)cc1	298

----------
Biological target: glucagon receptor (GCGR) overexpressed CHO-K1 cells or human primary hepatocytes (Homo sapiens)
Construct: expressed in transfected cells; host or cells: GCGR overexpressed CHO-K1 cells or human primary hepatocytes (endogenous receptor)
Test: Glucagon cAMP inhibition assay (Cisbio cAMP Dynamic 2 HTRF)
Format: cell-based
Details: inhibition of glucagon (EC50 concentration) induced cAMP production

smiles text	IC50 cAMP [nM]
CCCC[C@@H](COc1ccc(-c2ccc(C(F)(F)F)cc2F)nc1)Nc1ccc(C(=O)NCCC(=O)O)cc1	344
CC(C)(C)[C@@H](COc1ccc(-c2cc3ccccc3o2)c(Cl)c1)Nc1ccc(C(=O)NCCC(=O)O)cc1	293
CC(C)[C@H](COc1ccc(-c2nc3ccccc3s2)cc1)Nc1ccc(C(=O)NCCC(=O)O)cc1	377
CC(C)[C@@H](COc1cc(F)c(-c2ccc(C(F)(F)F)cc2F)c(F)c1)Nc1ccc(C(=O)NCCC(=O)O)cc1	165
CC[C@H](C)[C@@H](COc1ccc(-c2ccc(F)cc2F)nn1)Nc1ccc(C(=O)NCCC(=O)O)cc1	10157
CCN(c1ccc(C(=O)NCCC(=O)O)cc1)[C@H](COc1ccc(-c2cc3ccccc3o2)cc1)C(C)C	164.3
CC(C)[C@@H](COc1ccc(-c2cc3ncccc3o2)cc1)Nc1ccc(C(=O)NCCC(=O)O)cc1	1403
